- TARGET OR TEST SYSTEM: Carbonic anhydrase 2 (Homo sapiens, UniProt P00918)
- ASSAY METHOD TEXT: Binding affinity to human CA2 assessed as inhibition constant incubated for 6 hrs by phenol red dye based stopped flow CO2 hydration assay
pKi: −log10 of the molar value.
ATTRIBUTE MEASURED: pKi

q: Please report the recorded pKi for "Cc1cc(=O)oc2cc(OCc3cn(CCCCCCCCCCOc4ccc5ccc(=O)oc5c4)nn3)ccc12" .
a: < 5.00

###

- Test system: MDA-MB-231
- ASSAY METHOD TEXT: Antiproliferative activity against human MDA-MB-231 cells incubated for 96 hrs by MTT assay
- SETTINGS: MDA-MB-231, 96 h
ATTRIBUTE MEASURED: IC50 (nM)
Please reply with the bare figure in nM and do not write the unit itself.

q: Quick one: IC50 for "COc1cccc2c1C(=O)c1c(O)c3c(c(O)c1C2=O)C[C@@](O)(C(=O)CO)C[C@@H]3O[C@H]1C[C@H](N)[C@H](O)[C@H](C)O1" ?
a: 600

// data source = ChEMBL document CHEMBL5512619
